Cited source: patent US9676715B2

Please respond with reported MIC for every item in the list.
# System: S. pneumoniae ATCC 49619
# PROTOCOL SUMMARY: MIC, microdilution method (9.1)
# Assay type: cell-based
# PARTICULARS: Streptococcus pneumoniae, ATCC49619, 10% sheep blood, 5% CO2, 18 h
Use µg/mL as the unit, but write only the number.

Kindly note: S. pneumoniae ATCC 49619, CC(C)(C)OC(=O)NCC(NC(=O)c1c[nH]c2ccc(Br)cc12)c1c[nH]c2ccccc12 (stereo not shown) [Compound 3c] , MIC value reported: 32

Kindly note: S. pneumoniae ATCC 49619, O=C(NC(C(=O)NCCO)c1c[nH]c2ccc(Br)cc12)c1c[nH]c2ccc(Br)cc12 (stereo not shown) [Compound 14] , MIC value reported: 64

Kindly note: S. pneumoniae ATCC 49619, CC(C)(C)OC(=O)NCC(NC(=O)c1c[nH]c2cc(Cl)ccc12)c1c[nH]c2ccc(Cl)cc12 (stereo not shown) [Compound 6b] , MIC value reported: 64

Kindly note: S. pneumoniae ATCC 49619, CC(C)(C)OC(=O)NCC(NC(=O)c1c[nH]c2ccccc12)c1c[nH]c2cc(Br)ccc12 (stereo not shown) [Compound 3d] , MIC value reported: 64

Kindly note: S. pneumoniae ATCC 49619, CC(C)(C)OC(=O)NCC(NC(=O)c1c[nH]c2ccc(Cl)cc12)c1c[nH]c2ccc(Cl)cc12 (stereo not shown) [Compound 6a] , MIC value reported: 64

Kindly note: S. pneumoniae ATCC 49619, CC(C)(C)OC(=O)NCC(NC(=O)c1c[nH]c2cc(Br)ccc12)c1c[nH]c2ccc(Br)cc12 (stereo not shown) [Compound 3g] , MIC value reported: 32

Kindly note: S. pneumoniae ATCC 49619, CC(C)(C)OC(=O)NCC(NC(=O)c1c[nH]c2ccc(Br)cc12)c1c[nH]c2ccc(Br)cc12 (stereo not shown) [Compound 3f] , MIC value reported: 32

Kindly note: S. pneumoniae ATCC 49619, CC(C)(C)OC(=O)NCC(NC(=O)c1c[nH]c2ccc(Br)cc12)c1c[nH]c2cc(Br)ccc12 (stereo not shown) [Compound 3h] , MIC value reported: 32

Kindly note: S. pneumoniae ATCC 49619, O=C(NC(C(=O)NCCCCO)c1c[nH]c2ccc(Br)cc12)c1c[nH]c2ccc(Br)cc12 (stereo not shown) [Compound 15] , MIC value reported: 128

Kindly note: S. pneumoniae ATCC 49619, CC(C)(C)OC(=O)NCC(NC(=O)c1cccnc1)c1c[nH]c2ccc(Br)cc12 (stereo not shown) [Compound 10] , MIC value reported: 128

Kindly note: S. pneumoniae ATCC 49619, CC(C)(C)OC(=O)NCC(NC(=O)c1c[nH]c2cc(Br)ccc12)c1c[nH]c2cc(Br)ccc12 (stereo not shown) [Compound 3i] , MIC value reported: 32

----------
# Tested on: S. pneumoniae ATCC 6303
# PROTOCOL SUMMARY: MIC, microdilution method (9.1)
# Format: cell-based, Streptococcus pneumoniae
# PARTICULARS: Streptococcus pneumoniae, ATCC6303, 10% sheep blood, 5% CO2, 18 h, read-out: MIC
Please respond with reported MIC for every item in the list.
Use µg/mL as the unit, but write only the number.

Summary for this compound, CC(C)(C)OC(=O)NCC(NC(=O)c1c[nH]c2cc(Cl)ccc12)c1c[nH]c2ccc(Cl)cc12 (stereo not shown) [Compound 6b] : MIC is 64

Summary for this compound, CC(C)(C)OC(=O)NCC(NC(=O)c1c[nH]c2ccc(Br)cc12)c1c[nH]c2cc(Br)ccc12 (stereo not shown) [Compound 3h] : MIC is 32

Summary for this compound, CC(C)(C)OC(=O)NCC(NC(=O)c1c[nH]c2ccc(Br)cc12)c1c[nH]c2ccccc12 (stereo not shown) [Compound 3c] : MIC is 32

----------
# Tested on: S. mitis CIP 103335
# PROTOCOL SUMMARY: MIC, microdilution method (9.1)
# Type: cell-based, Streptococcus mitis
# PARTICULARS: Streptococcus mitis, CIP103335, 18 h, read-out: MIC
Please respond with reported MIC for every item in the list.

Summary for this compound, CC(C)(C)OC(=O)NCC(NC(=O)c1c[nH]c2cc(Cl)ccc12)c1c[nH]c2ccc(Cl)cc12 (centres unmarked) [Compound 6b] : MIC is 128 µg/mL

Summary for this compound, CC(C)(C)OC(=O)NCC(NC(=O)c1c[nH]c2ccc(Br)cc12)c1c[nH]c2ccc(Br)cc12 (centres unmarked) [Compound 3f] : MIC is 64 µg/mL

Summary for this compound, Cn1cc(C(=O)NC(CNC(=O)OC(C)(C)C)c2c[nH]c3ccc(Br)cc23)c2cc(Br)ccc21 (centres unmarked) [Compound 7] : MIC is > 128 µg/mL

Summary for this compound, CC(C)(C)OC(=O)NCC(NC(=O)c1c[nH]c2ccc(Cl)cc12)c1c[nH]c2ccc(Cl)cc12 (centres unmarked) [Compound 6a] : MIC is 64 µg/mL

Summary for this compound, CC(C)(C)OC(=O)NCC(NC(=O)c1c[nH]c2ccc(Br)cc12)c1c[nH]c2cc(Br)ccc12 (centres unmarked) [Compound 3h] : MIC is 32 µg/mL

Summary for this compound, CC(C)(C)OC(=O)NCC(NC(=O)c1c[nH]c2ccccc12)c1c[nH]c2ccccc12 (centres unmarked) [Compound 3a] : MIC is > 128 µg/mL

Summary for this compound, CC(C)(C)OC(=O)NCC(NC(=O)c1c[nH]c2cc(Br)ccc12)c1c[nH]c2ccc(Br)cc12 (centres unmarked) [Compound 3g] : MIC is 64 µg/mL

Summary for this compound, CC(C)(C)OC(=O)NCC(NC(=O)c1cccnc1)c1c[nH]c2ccc(Br)cc12 (centres unmarked) [Compound 10] : MIC is > 128 µg/mL

----------
# Test system: S. epidermidis ATCC 12228
# PROTOCOL SUMMARY: MIC, microdilution method (9.1)
# Assay type: cell-based, Staphylococcus epidermidis
# PARTICULARS: Staphylococcus epidermidis, ATCC12228, read after 18 h, read-out: MIC
EXPERIMENTAL READOUT: MIC (µg/mL)
Use µg/mL as the unit, but write only the number.

Summary for this compound, CC(C)(C)OC(=O)NCC(NC(=O)c1c[nH]c2cc(Cl)ccc12)c1c[nH]c2ccc(Cl)cc12 (stereo not shown) : MIC is 4

Summary for this compound, CC(C)(C)OC(=O)NCC(NC(=O)c1c[nH]c2ccc(Cl)cc12)c1c[nH]c2ccc(Cl)cc12 (stereo not shown) : MIC is 4

Summary for this compound, CC(C)(C)OC(=O)NCC(NC(=O)c1c[nH]c2ccc(Br)cc12)c1c[nH]c2cc(Br)ccc12 (stereo not shown) : MIC is 1

----------
# System: S. agalactiae (group B) ATCC 12400
# PROTOCOL SUMMARY: MIC, microdilution method (9.1)
# Type: cell-based, Streptococcus agalactiae
# PARTICULARS: Streptococcus agalactiae, ATCC12400, 18 h, read-out: MIC
EXPERIMENTAL READOUT: MIC (µg/mL)
Use µg/mL as the unit, but write only the number.

Kindly note: S. agalactiae (group B) ATCC 12400, CC(C)(C)OC(=O)NCC(NC(=O)c1c[nH]c2ccc(Br)cc12)c1c[nH]c2ccc(Br)cc12 (centres unmarked) , MIC value reported: 32

Kindly note: S. agalactiae (group B) ATCC 12400, CC(C)(C)OC(=O)NCC(NC(=O)c1c[nH]c2cc(Br)ccc12)c1c[nH]c2ccc(Br)cc12 (centres unmarked) , MIC value reported: 64

Kindly note: S. agalactiae (group B) ATCC 12400, CC(C)(C)OC(=O)NCC(NC(=O)c1c[nH]c2ccc(Br)cc12)c1c[nH]c2ccccc12 (centres unmarked) , MIC value reported: 64

Kindly note: S. agalactiae (group B) ATCC 12400, CC(C)(C)OC(=O)NCC(NC(=O)c1c[nH]c2cc(Cl)ccc12)c1c[nH]c2ccc(Cl)cc12 (centres unmarked) , MIC value reported: 128

Kindly note: S. agalactiae (group B) ATCC 12400, CC(C)(C)OC(=O)NCC(NC(=O)c1c[nH]c2ccc(Cl)cc12)c1c[nH]c2ccc(Cl)cc12 (centres unmarked) , MIC value reported: 64

----------
Please respond with reported MIC for every item in the list.
# Test system: S. aureus CIP 103428
# PROTOCOL SUMMARY: MIC, microdilution method (9.1)
# Type: cell-based, Staphylococcus aureus
# PARTICULARS: Staphylococcus aureus, CIP103428, read after 18 h, read-out: MIC
Use µg/mL as the unit, but write only the number.

Summary for this compound, COC(=O)C(NC(=O)c1c[nH]c2ccc(Br)cc12)c1c[nH]c2ccc(Br)cc12 (stereo not drawn) : MIC is 4

Summary for this compound, O=C(NC(C(=O)NCCCCO)c1c[nH]c2ccc(Br)cc12)c1c[nH]c2ccc(Br)cc12 (stereo not drawn) : MIC is 16

Summary for this compound, O=C(NC(C(=O)NCCO)c1c[nH]c2ccc(Br)cc12)c1c[nH]c2ccc(Br)cc12 (stereo not drawn) : MIC is 32

Summary for this compound, CC(C)(C)OC(=O)NCC(NC(=O)c1c[nH]c2cc(Cl)ccc12)c1c[nH]c2ccc(Cl)cc12 (stereo not drawn) : MIC is 4

Summary for this compound, CC(C)(C)OC(=O)NCC(NC(=O)c1c[nH]c2ccccc12)c1c[nH]c2ccc(Br)cc12 (stereo not drawn) : MIC is 8

Summary for this compound, CC(C)(C)OC(=O)NCC(NC(=O)c1c[nH]c2cc(Br)ccc12)c1c[nH]c2cc(Br)ccc12 (stereo not drawn) : MIC is 1
